Sourced from patent US8685974B2

test system: Fusarium graminearum; assay type: cell-based; details: 50 μM; 7 days at 28° C.
Reported values of % Inhibition of DON/AcDON at 50 μM for individual entries
Just the number in %, nothing appended.

Reported % Inhibition of DON/AcDON at 50 μM for `CC(C)(C)Cn1cc(-c2ccncc2)c(-c2ccc(F)s2)n1` : what is it?
97

Try `FC(F)Cn1cc(-c2ccncc2)c(-c2ccc(Br)s2)n1` next.
99

Try `CCn1cc(-c2ccnc(NC(=O)N(C)C)c2)c(-c2ccc(Cl)s2)n1` next.
99

Continuing:
Reported % Inhibition of DON/AcDON at 50 μM for `CC(=O)N(C(C)=O)c1cc(-c2cn(/C=C/F)nc2-c2ccc(Cl)s2)ccn1` : what is it?
100

Try O=C1OCCC1n1cc(-c2ccncc2)c(-c2cc3ccsc3s2)n1 (centres unmarked) next.
98

Try `CC(=O)Nc1cc(-c2cn(CC(C)C)nc2-c2ccc(Cl)s2)ccn1` next.
100

Try `FC(F)Cn1cc(-c2ccncc2)c(-c2ccc(Cl)s2)n1` next.
99

Try `FCCn1cc(-c2ccncc2)c(-c2cc3ccsc3s2)n1` next.
99

---

details: pH 2.3
Marks after values point to notes of the source that are not given here.
Reported values of log p for individual entries

Consider the following illustrative entries.
Reported log p for CC(C)n1cc(-c2ccnc(S(C)(=O)=O)n2)c(-c2ccc(Cl)s2)n1 [Example 203] : what is it?
3.15^[a]

Try CC(C)Cn1cc(-c2ccnc(N(C(=O)C3CC3)C(=O)C3CC3)c2)c(-c2ccc(Cl)s2)n1 [Example 82] next.
4.75^[a]

Try CCCNc1nccc(-c2c[nH]nc2-c2ccc(Cl)s2)n1 [Example 65] next.
1.75^[a]

Try Clc1nccc(-c2c[nH]nc2-c2ccc(Cl)s2)n1 [Example 81] next.
2.64^[a]

Try CC(C)Cn1cc(-c2cc[n+]([O-])c(N)c2)c(-c2ccc(Cl)s2)n1 [Example 77] next.
2.39^[a]

Continuing:
Reported log p for CCC(C)Nc1nccc(-c2cn(C(C)C)nc2-c2ccc(Cl)s2)n1 (stereo not drawn) [Example 182] : what is it?
3.15^[a]

Try C#CCNc1nccc(-c2cn(C(C)CC)nc2-c2ccc(Cl)s2)n1 (stereo not drawn) [Example 188] next.
3.68^[a]

Try CCC(C)n1cc(-c2ccnc(NC(C)C)n2)c(-c2ccc(Cl)s2)n1 (stereo not drawn) [Example 189] next.
3.25^[a]

Try CCC(C)n1cc(-c2ccnc(N)n2)c(-c2ccc(Cl)s2)n1 (stereo not drawn) [Example 193] next.
2.3^[a]

Try CC(=O)N(C(C)=O)c1nccc(-c2cn(C(C)C)nc2-c2ccc(Cl)s2)n1 [Example 171] next.
3.33^[a]

Try CC(C)Cn1cc(-c2cc[n+]([O-])c(NCc3ccccc3)c2)c(-c2ccc(Cl)s2)n1 [Example 73] next.
3.73^[a]

Try CC(=O)Nc1nccc(-c2cn(C(C)C)nc2-c2ccc(Cl)s2)n1 [Example 176] next.
2.59^[a]

Try CC(C)n1cc(-c2ccnc(NCc3ccccc3)n2)c(-c2ccc(Cl)s2)n1 [Example 198] next.
3.81^[a]

---

Reported values of protection for individual entries
test system: Pyrenophora teres; assay: In vivo test on Pyrenophora teres (barley net blotch); conditions: dose of 500 ppm; barley plants; grading 12 days after contamination

Reported protection for CCC(C)n1cc(-c2ccnc(NC(=O)CC3CC3)c2)c(-c2ccc(Cl)s2)n1 (stereo not shown) : what is it?
90%

Try `CC(C)n1cc(-c2ccncc2)c(-c2ccc(Br)s2)n1` next.
80%

Continuing:
Reported protection for `CC(C)CC(=O)Nc1cc(-c2cn(C)nc2-c2ccc(Cl)s2)ccn1` : what is it?
95%

Try `CC(C)Cn1cc(-c2ccncn2)c(-c2ccc(Cl)s2)n1` next.
70%

Try `Clc1ccc(-c2nn(C3CCCC3)cc2-c2ccncc2)s1` next.
89%

Try CCC(C)n1cc(-c2ccncc2)c(-c2ccc(Br)s2)n1 (stereo not shown) next.
95%

Try `CC(C)n1cc(-c2ccnc(NC(=O)c3cccs3)c2)c(-c2ccc(Cl)s2)n1` next.
80%

Try `N#CCCn1cc(-c2ccncc2)c(-c2ccc(F)s2)n1` next.
70%

Try `CC(C)n1cc(-c2ccnc(NC(=O)C3CCC3)c2)c(-c2ccc(Cl)s2)n1` next.
95%

Try `Clc1ccc(-c2nn(C3CCC3)cc2-c2ccncc2)s1` next.
100%

Try CCC(C)C(=O)Nc1cc(-c2cn(CC)nc2-c2ccc(Cl)s2)ccn1 (stereo not shown) next.
100%

Try `Cc1c(-c2ccncc2)c(-c2ccc(Cl)s2)nn1C(C)C` next.
100%

---

conditions: pH 2.7
Assign a class from recorded logP (pH2.7); defined classes: class 1 = under 2, class 2 = from 2 up to 3, class 3 = 3 and over

Study these solved cases before continuing.
Assign a bin to `CC(C)Cn1ncc(-c2cc[n+]([O-])c(N)c2)c1-c1ccc(Cl)s1`
class 2

Try `CC(C)n1cc(-c2ccnc(N=C(c3ccccc3)c3ccccc3)c2)c(-c2ccc(Cl)s2)n1` next.
class 3

Try `CC(C)n1cc(-c2ccncc2)c(-c2ccc(Br)s2)n1` next.
class 1

Try `CC(C)Cn1cc(-c2ccncc2)c(-c2cc3sccc3s2)n1` next.
class 2

Try CCC(C)n1cc(-c2cc[n+]([O-])cc2)c(-c2ccc(Cl)s2)n1 (centres unmarked) next.
class 2

Continuing:
Assign a bin to `CC(C)n1cc(-c2ccncc2)c(-c2cccs2)n1`
class 1

Try `CC(=O)Nc1cc(-c2cn(C(C)C)nc2-c2ccc(Cl)s2)ccn1` next.
class 2

Try CCC(C)n1nc(-c2ccc(Cl)s2)c(-c2ccncc2)c1Br (centres unmarked) next.
class 3

Try `CC#Cc1c(-c2ccncc2)c(-c2ccc(Cl)s2)nn1Cc1ccc(OC)cc1` next.
class 3

Try `CC(C)Cn1cc(-c2cc[n+]([O-])c(NCc3ccccc3)c2)c(-c2ccc(Cl)s2)n1` next.
class 3

Try `[O-][n+]1ccc(-c2c[nH]nc2-c2ccc(Cl)s2)cc1Cl` next.
class 1

Try `C#CCNc1cc(-c2cn(CC(C)C)nc2-c2ccc(Cl)s2)cc[n+]1[O-]` next.
class 2

Try `CC(C)Cn1cc(-c2cc[n+]([O-])c(Cl)c2)c(-c2ccc(Cl)s2)n1` next.
class 2

Try `CC(C)Cn1ncc(-c2cc[n+]([O-])c(NCc3ccccc3)c2)c1-c1ccc(Cl)s1` next.
class 3

Try `CC(C)Cn1cc(-c2cc[n+]([O-])c(N)c2)c(-c2ccc(Cl)s2)n1` next.
class 2

Try `CC(C)n1cc(-c2ccnc(N)c2)c(-c2ccc(Cl)s2)n1` next.
class 1

---

system: Alternaria solani; assay: Alternaria test (tomato) / protective; type: in vivo; details: 500 ppm active compound, protective spray, evaluated 7 days after inoculation
Please note: efficacy exactly at 80% is Not fulfilled. Only values below 80% get Fulfilled.

Study these solved cases before continuing.
Is the reported efficacy for `CCn1cc(-c2ccnc(NC(=O)c3ccsc3)c2)c(-c2ccc(Cl)s2)n1` strictly below 80%?
Fulfilled

Try `FCCn1cc(-c2ccncc2)c(-c2ccc(F)s2)n1` next.
Not fulfilled

Try `CC(C)n1cc(-c2ccnc(NC(=O)CC3CC3)c2)c(-c2ccc(Cl)s2)n1` next.
Not fulfilled

Continuing:
Is the reported efficacy for CCC(C)n1nc(-c2ccc(Cl)s2)c(-c2ccncc2)c1SC (stereo not shown) strictly below 80%?
Not fulfilled

Try `CC(C)Cn1cc(-c2ccnc(NC(=O)C3CCC3)c2)c(-c2ccc(Cl)s2)n1` next.
Not fulfilled

Try `CCn1cc(-c2ccnc(NC(=O)C(C)(C)O)c2)c(-c2ccc(Cl)s2)n1` next.
Fulfilled

Try `CC(C)C(=O)Nc1cc(-c2cn(C)nc2-c2ccc(Cl)s2)ccn1` next.
Not fulfilled

Try `c1cc(-c2cn(C3CCCC3)nc2-c2cc3ccsc3s2)ccn1` next.
Not fulfilled

Try CCC(C)n1cc(-c2ccncc2)c(-c2cc3ccsc3s2)n1 (stereo not shown) next.
Not fulfilled

Try `FC(F)Cn1cc(-c2ccncc2)c(-c2ccc(Cl)s2)n1` next.
Not fulfilled

Try `Fc1ccc(-c2nn(CCCl)cc2-c2ccncc2)s1` next.
Not fulfilled

---

Reported values of % Inhibition of DON/AcDON at 50 μM for individual entries
tested on: Fusarium graminearum; assay type: cell-based; conditions: 50 μM; 7 days at 28° C.
Just the number in %, nothing appended.

Reported % Inhibition of DON/AcDON at 50 μM for `CC(C)Cn1cc(-c2ccnc(NC(=O)C3CC3)c2)c(-c2ccc(Cl)s2)n1` : what is it?
100

Try CCC(=O)Nc1cc(-c2cn(C(C)CC)nc2-c2ccc(Cl)s2)ccn1 (stereo not drawn) next.
99

Try `CSc1ccc(-c2nn(C(C)C)cc2-c2ccncc2)s1` next.
99

Try `CCn1cc(-c2ccncc2)c(-c2ccc(F)s2)n1` next.
99

Try `N#CCCn1cc(-c2ccncc2)c(-c2ccc(Cl)s2)n1` next.
99

Consider the record given below.
Reported % Inhibition of DON/AcDON at 50 μM for `ClCCn1cc(-c2ccncc2)c(-c2cc3ccsc3s2)n1` : what is it?
99
